Experiment: growth suppression of beta-catenin knockout HCT116, pilot screen, human colon tumor cells (AID 823);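 note: 0% = wells killed by 20 µM Hyamine and 100% = untreated DMSO cell wells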
Details: CellTiter-Glo, 60 h, at 10 µM, active compounds read low
Results filed as inconclusive are left out. Active and inactive are the calls of the source.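 Rule for the calls: active = cell viability at or below a set limit in both duplicate runs, the limit being the all-compound median minus 4 SD (cut at about 23% in these data, passing the limit was not always enough); inconclusive = no clear call, values can overlap the other calls; inactive = the rest.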
Overview of recorded viability for various compounds

1. O=C(O)CCC(=O)N1CCc2cc(S(=O)(=O)N3CCN(c4ccc(F)cc4)CC3)ccc21
97.4% (inactive)
2. O=C(Cn1c(=O)sc2ccccc21)N1CCOCC1
95.5% (inactive)
3. CCOC(=O)c1cn[nH]c1N
101% (inactive)
4. O=C(NCc1ccc2c(c1)OCO2)C1CCN(c2ccc(S(=O)(=O)N3CCCC3)cc2)CC1
65.5% (inactive)
5. CNC(=O)CN1C(=O)CSc2ncccc21
101% (inactive)

Now let's try a different one.
In: Give the reported viability for this compound. Cc1ccc(CN2C(=O)/C(=C3\SC(N4CCOCC4)=NC3=O)c3cc(Br)ccc32)cc1
Out: 76.7% (inactive)

The reported measurements were obtained from PubChem BioAssay.
